Entry source: patent US20240400708A1

Target: feline FcRn complex (FcRn-α subunit and β-microglobulin) (feline)
Test: SPR (Biacore), FcRn on SA chip, pH 6
Reported pKd by item:
pKd here: minus log base 10 of the concentration, concentration in moles per litre.

Check out these entries, answers already filled in.
| Binder | Value Observed |
| --- | --- |
| feline IgG1a mutant ID No. 272: S252R, S434F (antibody, part only; not given: variable domains, not shown: another chain or arm of the molecule) constant: ASTTAPSVFPLAPSCGTTSGATVALACLVLGYFPEPVTVSWNSGALTSGVHTFPAVLQASGLYSLSSMVTVPSSRWLSDTFTCNVAHPPSNTKVDKTVRKTDHPPGPKPCDCPKCPPPEMLGGPSIFIFPPKPKDTLRISRTPEVTCLVVDLGPDDSDVQITWFVDNTQVYTAKTSPREEQFNSTYRVVSVLPILHQDWLKGKEFKCKVNSKSLPSPIERTISKAKGQPHEPQVYVLPPAQEELSRNKVSVTCLIKSFHPPDIAVEWEITGQPEPENNYRTTPPQLDSDGTYFVYSKLSVDRSHWQRGNTYTCSVSHEALHFHHTQKSLTQSPGK | 8.10 |
| feline IgG1a mutant ID No. 373: S252Y, S434R, Q311R (antibody, part only; not given: Variable domains, not shown: another chain or arm of the molecule) constant: ASTTAPSVFPLAPSCGTTSGATVALACLVLGYFPEPVTVSWNSGALTSGVHTFPAVLQASGLYSLSSMVTVPSSRWLSDTFTCNVAHPPSNTKVDKTVRKTDHPPGPKPCDCPKCPPPEMLGGPSIFIFPPKPKDTLYISRTPEVTCLVVDLGPDDSDVQITWFVDNTQVYTAKTSPREEQFNSTYRVVSVLPILHRDWLKGKEFKCKVNSKSLPSPIERTISKAKGQPHEPQVYVLPPAQEELSRNKVSVTCLIKSFHPPDIAVEWEITGQPEPENNYRTTPPQLDSDGTYFVYSKLSVDRSHWQRGNTYTCSVSHEALHRHHTQKSLTQSPGK | 9.44 |
| feline IgG1a mutant ID No. 269: S252F, S434R, Q311W (antibody, part only; not given: Variable domains, not shown: another chain or arm of the molecule) constant: ASTTAPSVFPLAPSCGTTSGATVALACLVLGYFPEPVTVSWNSGALTSGVHTFPAVLQASGLYSLSSMVTVPSSRWLSDTFTCNVAHPPSNTKVDKTVRKTDHPPGPKPCDCPKCPPPEMLGGPSIFIFPPKPKDTLFISRTPEVTCLVVDLGPDDSDVQITWFVDNTQVYTAKTSPREEQFNSTYRVVSVLPILHWDWLKGKEFKCKVNSKSLPSPIERTISKAKGQPHEPQVYVLPPAQEELSRNKVSVTCLIKSFHPPDIAVEWEITGQPEPENNYRTTPPQLDSDGTYFVYSKLSVDRSHWQRGNTYTCSVSHEALHRHHTQKSLTQSPGK | 7.95 |
| feline IgG1a mutant ID No. 354: S252Y, S428M, S434F, T250Q (antibody, part only; not given: variable domains and light chain, not shown: another chain or arm of the molecule) constant: ASTTAPSVFPLAPSCGTTSGATVALACLVLGYFPEPVTVSWNSGALTSGVHTFPAVLQASGLYSLSSMVTVPSSRWLSDTFTCNVAHPPSNTKVDKTVRKTDHPPGPKPCDCPKCPPPEMLGGPSIFIFPPKPKDQLYISRTPEVTCLVVDLGPDDSDVQITWFVDNTQVYTAKTSPREEQFNSTYRVVSVLPILHQDWLKGKEFKCKVNSKSLPSPIERTISKAKGQPHEPQVYVLPPAQEELSRNKVSVTCLIKSFHPPDIAVEWEITGQPEPENNYRTTPPQLDSDGTYFVYSKLSVDRSHWQRGNTYTCSVMHEALHFHHTQKSLTQSPGK | 10.72 |
| feline IgG1a mutant ID No. 309: P247V, T250Q (antibody, part only; not given: Variable domains, not shown: another chain or arm of the molecule; small tags and cut ends) constant: ASTTAPSVFPLAPSCGTTSGATVALACLVLGYFPEPVTVSWNSGALTSGVHTFPAVLQASGLYSLSSMVTVPSSRWLSDTFTCNVAHPPSNTKVDKTVRKTDHPPGPKPCDCPKCPPPEMLGGPSIFIFPPKVKDQLSISRTPEVTCLVVDLGPDDSDVQITWFVDNTQVYTAKTSPREEQFNSTYRVVSVLPILHQDWLKGKEFKCKVNSKSLPSPIERTISKAKGQPHEPQVYVLPPAQEELSRNKVSVTCLIKSFHPPDIAVEWEITGQPEPENNYRTTPPQLDSDGTYFVYSKLSVDRSHWQRGNTYTCSVSHEALHSHHTQKSLTQSPGK | 8.02 |
| feline IgG1a mutant ID No. 312: Q311K, D312P, L314K (antibody, part only; not given: Variable domains, not shown: another chain or arm of the molecule) constant: ASTTAPSVFPLAPSCGTTSGATVALACLVLGYFPEPVTVSWNSGALTSGVHTFPAVLQASGLYSLSSMVTVPSSRWLSDTFTCNVAHPPSNTKVDKTVRKTDHPPGPKPCDCPKCPPPEMLGGPSIFIFPPKPKDTLSISRTPEVTCLVVDLGPDDSDVQITWFVDNTQVYTAKTSPREEQFNSTYRVVSVLPILHKPWKKGKEFKCKVNSKSLPSPIERTISKAKGQPHEPQVYVLPPAQEELSRNKVSVTCLIKSFHPPDIAVEWEITGQPEPENNYRTTPPQLDSDGTYFVYSKLSVDRSHWQRGNTYTCSVSHEALHSHHTQKSLTQSPGK | 8.22 |
| feline IgG1a mutant ID No. 349: S252Y, S428M, S434F, Q311K (antibody, part only; not given: variable domains and light chain, not shown: another chain or arm of the molecule) constant: ASTTAPSVFPLAPSCGTTSGATVALACLVLGYFPEPVTVSWNSGALTSGVHTFPAVLQASGLYSLSSMVTVPSSRWLSDTFTCNVAHPPSNTKVDKTVRKTDHPPGPKPCDCPKCPPPEMLGGPSIFIFPPKPKDTLYISRTPEVTCLVVDLGPDDSDVQITWFVDNTQVYTAKTSPREEQFNSTYRVVSVLPILHKDWLKGKEFKCKVNSKSLPSPIERTISKAKGQPHEPQVYVLPPAQEELSRNKVSVTCLIKSFHPPDIAVEWEITGQPEPENNYRTTPPQLDSDGTYFVYSKLSVDRSHWQRGNTYTCSVMHEALHFHHTQKSLTQSPGK | 10.72 |
| feline IgG1a mutant ID No. 331: S428Y, D312P, S434Y, Q311M, L314K (antibody, part only; not given: Variable domains, not shown: another chain or arm of the molecule; small tags and cut ends) constant: ASTTAPSVFPLAPSCGTTSGATVALACLVLGYFPEPVTVSWNSGALTSGVHTFPAVLQASGLYSLSSMVTVPSSRWLSDTFTCNVAHPPSNTKVDKTVRKTDHPPGPKPCDCPKCPPPEMLGGPSIFIFPPKPKDTLSISRTPEVTCLVVDLGPDDSDVQITWFVDNTQVYTAKTSPREEQFNSTYRVVSVLPILHMPWKKGKEFKCKVNSKSLPSPIERTISKAKGQPHEPQVYVLPPAQEELSRNKVSVTCLIKSFHPPDIAVEWEITGQPEPENNYRTTPPQLDSDGTYFVYSKLSVDRSHWQRGNTYTCSVYHEALHYHHTQKSLTQSPGK | 9.59 |

The binder feline IgG1a mutant ID No. 339: S252Y, S428M, S434F, P247L (antibody, part only; not given: Variable domains, not shown: another chain or arm of the molecule) constant: ASTTAPSVFPLAPSCGTTSGATVALACLVLGYFPEPVTVSWNSGALTSGVHTFPAVLQASGLYSLSSMVTVPSSRWLSDTFTCNVAHPPSNTKVDKTVRKTDHPPGPKPCDCPKCPPPEMLGGPSIFIFPPKLKDTLYISRTPEVTCLVVDLGPDDSDVQITWFVDNTQVYTAKTSPREEQFNSTYRVVSVLPILHQDWLKGKEFKCKVNSKSLPSPIERTISKAKGQPHEPQVYVLPPAQEELSRNKVSVTCLIKSFHPPDIAVEWEITGQPEPENNYRTTPPQLDSDGTYFVYSKLSVDRSHWQRGNTYTCSVMHEALHFHHTQKSLTQSPGK showed pKd equal to 10.77
